// provenance: PubChem BioAssay (Tox21)

# protocol_notes: Nuclear factor erythroid 2-related factor 2/antioxidant responsive element (Nrf2/ARE) small molecule agonists: luciferase reporter gene qHTS assay in human keratinocytes (AID 1919969); further: nearly all actives have a fitted effect of over 35% in size
# condition_label: KeratinoSens HaCaT ARE-luciferase, luminescence, 24 h; series mostly up to 92.4 µM
Records with an inconclusive call do not appear. Activity calls are given as the source filed them. The call rests on the fitted dose curve.
observed_property: Potency

Worked set:
compound: Nc1nc(=S)[nH][nH]1
Potency: inactive
//
compound: COS(=O)(=O)c1ccc(C)cc1
Potency: inactive
//
compound: O=C(O)C(Cl)Br (centres undefined)
Potency: inactive
//
compound: Cc1ccccc1O
Potency: inactive
//
compound: C=CCc1ccc(OC)cc1
Potency: inactive
//
compound: COP(N)(=O)SC (centres undefined)
Potency: inactive

In plain terms, `CCC[N+]1(C)CCCC1` has a documented Potency of inactive

In plain terms, `Nc1c(Cl)cc([N+](=O)[O-])cc1Cl` has a documented Potency of inactive
